This collection of values is drawn from patent US11066414B2.

target: Human Cot (Homo sapiens (Human), UniProt P41279); assay: High Throughput Cot Biochemical Assay; details: IC50 HTRF, Cot HTRF (TR-FRET) biochemical assay
Sequence (P41279 30-397): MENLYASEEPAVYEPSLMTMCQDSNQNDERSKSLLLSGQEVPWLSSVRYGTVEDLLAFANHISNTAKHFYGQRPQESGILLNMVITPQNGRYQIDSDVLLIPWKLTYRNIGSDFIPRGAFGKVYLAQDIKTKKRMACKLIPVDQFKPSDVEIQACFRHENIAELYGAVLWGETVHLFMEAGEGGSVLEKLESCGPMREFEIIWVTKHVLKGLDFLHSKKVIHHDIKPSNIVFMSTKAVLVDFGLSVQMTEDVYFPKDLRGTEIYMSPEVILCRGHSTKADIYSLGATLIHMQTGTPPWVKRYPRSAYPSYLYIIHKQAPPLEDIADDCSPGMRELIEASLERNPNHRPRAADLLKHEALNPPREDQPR
pIC50: −log10 of the molar value.
In this section we review reported pIC50 values for a set of molecules.

[
  {
    "SMILES STRUCTURE": "COc1cc(N[C@H](c2cn(C3(C(F)(F)F)CC3)nn2)c2ccc(F)nc2C)cc2c(NCC(C)(C)C)c(C#N)cnc12",
    "pIC50": 6.68
  },
  {
    "SMILES STRUCTURE": "CC(C)(C)CNc1c(C#N)cnc2c(Cl)cc(N[C@H](c3cn(C4(C(F)(F)F)CC4)nn3)c3ccc(F)c4ncccc34)cc12",
    "pIC50": 8.05
  },
  {
    "SMILES STRUCTURE": "N#Cc1cnc2c(Cl)cc(N[C@H](c3cn(C4CCNCC4)nn3)c3sccc3Cl)cc2c1Nc1ccc(F)c(Cl)c1",
    "pIC50": 7.74
  },
  {
    "SMILES STRUCTURE": "N#Cc1cnc2c(Cl)cc(N[C@H](c3cn(C4COC4)nn3)c3cc(Br)cnc3Cl)cc2c1Nc1ccc(F)c(Cl)c1",
    "pIC50": 7.22
  },
  {
    "SMILES STRUCTURE": "Cc1nc(F)ccc1[C@H](Nc1cc(Cl)c2ncc(C#N)c(NCC(C)(C)C)c2c1)c1cn(CC2(C)CC2)nn1",
    "pIC50": 8.40
  },
  {
    "SMILES STRUCTURE": "[2H][C@](Nc1cc(Cl)c2ncc(C#N)c(NCC(C)(C)C)c2c1)(c1cccnc1)c1cn(-c2cccnc2)nn1",
    "pIC50": 8.52
  },
  {
    "SMILES STRUCTURE": "CC(C)(C)CNc1c(C#N)cnc2c(C#N)cc(N[C@@H](c3ccc4cccnc4c3)c3cn(C4(C(F)F)CC4)nn3)cc12",
    "pIC50": 8.22
  },
  {
    "SMILES STRUCTURE": "Cc1ncsc1[C@H](Nc1cc(Cl)c2ncc(C#N)c(Nc3ccc(F)c(Cl)c3)c2c1)c1cn(C(C)C)nn1",
    "pIC50": 8.22
  },
  {
    "SMILES STRUCTURE": "N#Cc1csc([C@H](Nc2cc(Cl)c3ncc(C#N)c(Nc4ccc(F)c(Cl)c4)c3c2)c2cn(Cc3ccccn3)nn2)c1",
    "pIC50": 7.80
  },
  {
    "SMILES STRUCTURE": "CC(C)(C)CNc1c(C#N)cnc2c(Cl)cc(N[C@H](c3cn(C4(C)CC4)nn3)c3cccc4cnccc34)cc12",
    "pIC50": 8.52
  },
  {
    "SMILES STRUCTURE": "CC(C)(C)CNc1c(C#N)cnc2c(C#N)cc(N[C@H](c3cn(C4(C(F)(F)F)CC4)nn3)c3ccc(F)c4ncccc34)cc12",
    "pIC50": 8.40
  },
  {
    "SMILES STRUCTURE": "[2H][C@](Nc1cc(Cl)c2ncc(C#N)c(Nc3c(F)ccc(Cl)c3F)c2c1)(c1ccc(F)nc1)c1cn(C2CC2)nn1",
    "pIC50": 7.80
  },
  {
    "SMILES STRUCTURE": "CC(C)(C)CNc1c(C#N)cnc2c(C#N)cc(N[C@H](c3cn(C4(C(F)(F)F)CC4)nn3)c3cccc4ccncc34)cc12",
    "pIC50": 8.70
  }
]
